Test system: Klebsiella aerogenes DSM 30053
assay procedure: fold change of Putrescine concentration vs plate DMSO controls (fold change (ratio)); higher = more amine produced, active = hit call of the paper (significant change in both replicates, either direction)
conditions: 20 µM; incubation time: 27 h, anaerobic, 37 °C
Parameter: fold change of Putrescine concentration. Scope: all listed entries.
Just the number, please, no unit after it.

compound	system name	observable	quantitative readout
Nc1nc(N)nc(NC2CC2)n1	Klebsiella aerogenes DSM 30053	fold change of Putrescine concentration	1.03
CC(=O)O[C@H]1CC[C@@]2(C)C(=CC[C@@H]3[C@@H]2CC[C@]2(C)C(=O)CC[C@@H]32)C1 [Dehydroisoandosterone 3-acetate]	Klebsiella aerogenes DSM 30053	fold change of Putrescine concentration	1.04
CCCC[N+]1(C)[C@@H]2C[C@@H](OC(=O)[C@H](CO)c3ccccc3)C[C@H]1[C@@H]1O[C@@H]12 (some centres not stated) [N-Butylscopolammonium bromide]	Klebsiella aerogenes DSM 30053	fold change of Putrescine concentration	1.01
O=C(O)C(F)(F)C(F)(F)C(F)(F)C(F)(F)C(F)(F)C(F)(F)F	Klebsiella aerogenes DSM 30053	fold change of Putrescine concentration	1.02
CC(=O)OCC1=C(C(=O)O)N2C(=O)[C@@H](N)[C@H]2SC1	Klebsiella aerogenes DSM 30053	fold change of Putrescine concentration	1.01

Quick one: fold change of Putrescine concentration of CCCCC(C#N)(Cn1cncn1)c1ccc(Cl)cc1 (configuration not stated) ?
0.815

Quick one: fold change of Putrescine concentration of CCCN(CCOc1c(Cl)cc(Cl)cc1Cl)C(=O)n1ccnc1 ?
1.01

Quick one: fold change of Putrescine concentration of CC(C)(C)c1ccc(CSc2cnn(C(C)(C)C)c(=O)c2Cl)cc1 ?
1.01

Quick one: fold change of Putrescine concentration of C[C@]12COC(=O)C[C@@H]1CC[C@@H]1[C@@H]2CC[C@@]2(C)[C@H]1CC[C@]2(C)O ?
0.991

Quick one: fold change of Putrescine concentration of COC(=O)N(OC)c1ccccc1COc1ccn(-c2ccc(Cl)cc2)n1 ?
1.02

Quick one: fold change of Putrescine concentration of CCc1cnc(C2=NC(C)(C(C)C)C(=O)N2)c(C(=O)O)c1 (configuration not stated) ?
1.02

Quick one: fold change of Putrescine concentration of CCc1cc(C)cc(CC)c1-c1c(OC(=O)C(C)(C)C)n2n(c1=O)CCOCC2 ?
1.01

* * *

Tested on: Klebsiella aerogenes DSM 30053
assay procedure: fold change of Putrescine concentration vs plate DMSO controls (fold change (ratio)); higher = more amine produced, active = hit call of the paper (significant change in both replicates, either direction)
conditions: 20 µM; incubation time: 27 h, anaerobic, 37 °C
Structures can show the parent of a compound that is named as a salt.
Parameter: fold change of Putrescine concentration. Scope: all listed entries.

Check out these entries, answers already filled in.
molecule	fold change of Putrescine concentration
CC(C)N1C(=O)c2ccccc2NS1(=O)=O	0.979 (inactive)
Fc1ccc(Oc2ccnc3cc(Cl)cc(Cl)c23)cc1	1.02 (inactive)

Quick one: fold change of Putrescine concentration of CC(Cc1ccccc1)NCCC(c1ccccc1)c1ccccc1 (stereo unspecified) [Prenylamine lactate] ?
0.961 (inactive)

Quick one: fold change of Putrescine concentration of CN1[C@@H]2CC[C@H]1C[C@@H](OC(=O)C(CO)c1ccccc1)C2 (stereo partly specified) [Atropine sulfate monohydrate] ?
1.02 (inactive)

Quick one: fold change of Putrescine concentration of CN1[C@@H]2CC[C@H]1C[C@@H](OC(=O)[C@H](CO)c1ccccc1)C2 [(L) Hyoscyamine] ?
0.94 (inactive)

Quick one: fold change of Putrescine concentration of N#CCNC(=O)c1cnccc1C(F)(F)F ?
1.01 (inactive)

Quick one: fold change of Putrescine concentration of CNC(=O)/C=C(\C)OP(=O)(OC)OC ?
0.986 (inactive)

Quick one: fold change of Putrescine concentration of C1=Cc2cccc3cccc1c23 [Acenaphthylene] ?
1 (inactive)

Quick one: fold change of Putrescine concentration of OC(Cn1cncn1)(c1ccc(F)cc1)c1ccccc1F (stereo unspecified) ?
1.02 (inactive)

Quick one: fold change of Putrescine concentration of COP(=S)(OC)Oc1nc(Cl)c(Cl)cc1Cl ?
1.02 (inactive)

Quick one: fold change of Putrescine concentration of CN(C)C(=O)Oc1cccc([N+](C)(C)C)c1 [Neostigmine bromide] ?
0.998 (inactive)

* * *

Test system: Clostridium sporogenes DSM 1664
assay procedure: growth (OD595) fold change vs plate DMSO controls (fold change (ratio)); higher = more growth
conditions: 20 µM; incubation time: 27 h, anaerobic, 37 °C
Counter-ions that a name gives are not always drawn.
observable: growth

Check out these entries, answers already filled in.
compound	growth
CN[C@@H]1C[C@@H](c2ccc(Cl)c(Cl)c2)c2ccccc21 [Indatraline hydrochloride]	1.13
COc1ccc(C(=O)N2CCCC2=O)cc1	0.932
OC(Cn1cncn1)(c1ccc(F)cc1)c1ccccc1F (configuration not stated)	1.15

Quick one: growth of COc1ccc2c(c1)[C@]13CCCC[C@@H]1[C@H](C2)N(C)CC3 [Dextromethorphan hydrobromide monohydrate] ?
1.05

Quick one: growth of N#Cc1cc(Br)c(O)c(Br)c1 ?
0.976

Quick one: growth of Cc1cc(C(C#N)c2ccc(Cl)cc2)c(Cl)cc1NC(=O)c1cc(I)cc(I)c1O (configuration not stated) ?
0

Quick one: growth of Cc1cccc(C)c1NC1=NCCCS1 ?
1.16

Quick one: growth of CO/C=C(/C(=O)OC)c1ccccc1COc1cccc(C(F)(F)F)n1 ?
1.04

Quick one: growth of O=[N+]([O-])O[C@H]1CO[C@H]2[C@@H]1OC[C@H]2O[N+](=O)[O-] [Isosorbide dinitrate] ?
0.818

Quick one: growth of CN(C)[C@@H]1C(=O)C(C(N)=O)=C(O)[C@@]2(O)C(=O)C3=C(O)c4c(O)cccc4[C@@](C)(O)[C@H]3[C@H](O)[C@@H]12 [Oxytetracycline dihydrate] ?
0.0153

Quick one: growth of CO/N=C(/C(=O)OC)c1ccccc1CO/N=C(\C)c1cccc(C(F)(F)F)c1 ?
0.917

Quick one: growth of CNC(=O)CSP(=S)(OC)OC ?
0.992

Quick one: growth of C[C@@H]1C[C@@H]([C@H](O)CC2CC(=O)NC(=O)C2)C(=O)[C@@H](C)C1 [Cycloheximide] ?
1.17

Quick one: growth of CCOc1cc(Oc2ccc(C(F)(F)F)cc2Cl)ccc1[N+](=O)[O-] ?
1.13

Quick one: growth of C[C@]12CCC(=O)C=C1CC[C@@H]1[C@@H]2C(=O)C[C@]2(C)C(=O)CC[C@@H]12 ?
1.1

* * *

Parameter: growth. Scope: all listed entries.
Test system: Ruminococcus gnavus DSM 108212
assay procedure: growth (OD595) fold change vs plate DMSO controls (fold change (ratio)); higher = more growth
conditions: 20 µM; incubation time: 27 h, anaerobic, 37 °C
Where a name gives a salt, the structure may show the parent alone.
Just the number, please, no unit after it.

Check out these entries, answers already filled in.
compound	system name	growth
O=[N+]([O-])/N=C1\NCCN1Cc1ccc(Cl)nc1	Ruminococcus gnavus DSM 108212	0.979
CCN(CC)CCOC(=O)C(O)(c1ccccc1)c1ccccc1 [Benactyzine hydrochloride]	Ruminococcus gnavus DSM 108212	0.944
CCCC(Cn1cncn1)c1ccc(Cl)cc1Cl (stereo not given)	Ruminococcus gnavus DSM 108212	0.977
COC(=O)N(C(=O)N1CO[C@@]2(C(=O)OC)Cc3cc(Cl)ccc3C2=N1)c1ccc(OC(F)(F)F)cc1	Ruminococcus gnavus DSM 108212	0.903

Quick one: growth of CCOc1cc(Oc2ccc(C(F)(F)F)cc2Cl)ccc1[N+](=O)[O-] ?
0.995

* * *

Tested on: Ruminococcus gnavus DSM 108212
assay procedure: growth (OD595) fold change vs plate DMSO controls (fold change (ratio)); higher = more growth
conditions: 20 µM; incubation time: 27 h, anaerobic, 37 °C
Counter-ions that a name gives are not always drawn.
Parameter: growth. Scope: all listed entries.
Just the number, please, no unit after it.

Check out these entries, answers already filled in.
compound	growth
COc1ccc(C(=O)N2CCCC2=O)cc1	0.771
CCc1cc(C)cc(CC)c1-c1c(OC(=O)C(C)(C)C)n2n(c1=O)CCOCC2	0.919
C=C[C@H]1CN2CC[C@H]1C[C@H]2[C@H](OC(=O)OCC)c1ccnc2ccc(OC)cc12 [Quinine ethyl carbonate]	0.915
O=C(Nc1ccc(F)cc1F)c1cccnc1Oc1cccc(C(F)(F)F)c1	0.965
O=C(CCCN1CCC2(CC1)C(=O)NCN2c1ccccc1)c1ccc(F)cc1	0.921
CCCC1COC(Cn2cncn2)(c2ccc(Cl)cc2Cl)O1 (stereo not given)	0.947
CN1COCN(Cc2cnc(Cl)s2)/C1=N\[N+](=O)[O-]	0.969
CCNCC(O)c1cccc(O)c1 (stereo not given) [Etilefrine hydrochloride]	0.981
CCOC(=O)c1cncn1[C@H](C)c1ccccc1 [Etomidate]	0.931

Quick one: growth of O=C(O)C(F)(F)C(F)(F)C(F)(F)C(F)(F)C(F)(F)C(F)(F)C(F)(F)C(F)(F)C(F)(F)F ?
1.24
